# Test Details: Long-term storage stability of antibiotics in combination with fosfomycin spiked in plasma/CAMHB (−30 °C, −80 °C)
# Type: physicochemical
# Experimental Context: plasma, combination with fosfomycin, 4 weeks at -80 °C; HQC (nominal as E15)
Reported Mean accuracy (%), Table S14 values follow for various molecules

molecule="CO/N=C(\\C(=O)N[C@@H]1C(=O)N2C(C(=O)[O-])=C(C[N+]3(C)CCCC3)CS[C@H]12)c1csc(N)n1 [Cefepime, cefepime]" result=95.7%

Request: Consider the molecule `NC(=O)[C@@H]1CC[C@@H]2CN1C(=O)N2OS(=O)(=O)O` and give its measured Mean accuracy (%), Table S14.
Response: 92.9%

Request: And then `C[C@@H](O)[C@H]1C(=O)N2C(C(=O)O)=C(S[C@@H]3CN[C@H](C(=O)N(C)C)C3)[C@H](C)[C@H]12` , what is it?
Response: 96.1%

Request: And then `CC(C)(O/N=C(\C(=O)N[C@@H]1C(=O)N2C(C(=O)[O-])=C(C[n+]3ccccc3)CS[C@H]12)c1csc(N)n1)C(=O)O` , what is it?
Response: 107.7%
